Property: MRT last; scope: individual compounds
# PROTOCOL_NOTES: Plasma pharmacokinetics after oral administration in mice
# PROTOCOL_CONDITIONS: male, ICR, mouse, plasma, po, 6 mg/kg
VALUE_TYPE: MRT last (h)

COc1ccc2c3c(c4cc(OC)c(OC)cc4c2c1)CN1CCC[C@H]1C3.O=C(O)/C=C\C(=O)O [Maleate, (+)-13a-(S)-deoxytylophorinine Maleate]
1.78
COc1ccc2c3c(c4cc(OC)c(OC)cc4c2c1)CN1CCC[C@H]1C3.O=C(O)C(O)C(O)C(=O)O [Tartrate, (+)-13a-(S)-deoxytylophorinine Tartrate]
1.57
COc1ccc2c3c(c4cc(OC)c(OC)cc4c2c1)CN1CCC[C@H]1C3.O=C(O)CC(O)(CC(=O)O)C(=O)O [Citrate, (+)-13a-(S)-deoxytylophorinine Citrate]
1.73
COc1ccc2c3c(c4cc(OC)c(OC)cc4c2c1)CN1CCC[C@H]1C3 [(+)-13a-(S)-deoxytylophorinine, reference compound]
0.77

###

# PROTOCOL_NOTES: Plasma pharmacokinetics after oral administration in mice
# PROTOCOL_CONDITIONS: male, ICR, mouse, plasma, oral, 6 mg/kg, Blood concentration of (+)-13a-(S)-deoxytylophorinine (ng/ml), Mean ± SD, 6 mg/kg oral, mice; Time (min) 2
VALUE_TYPE: concentration at 2 h (ng/mL)

COc1ccc2c3c(c4cc(OC)c(OC)cc4c2c1)CN1CCC[C@H]1C3.O=C(O)C(O)C(O)C(=O)O [Tartrate, (+)-13a-(S)-deoxytylophorinine Tartrate]
7.9

###

# System: Hct8 human colon cancer cell
# PROTOCOL_NOTES: Cytotoxic activity assay (MTT), Hct8
# Format: cell-based
# PROTOCOL_CONDITIONS: HCT-8, 120 h, 5 days
VALUE_TYPE: IC50 (nM)

CC(O)C(=O)O.COc1ccc2c3c(c4cc(OC)c(OC)cc4c2c1)CN1CCC[C@H]1C3 [Lactate, (+)-13a-(S)-deoxytylophorinine Lactate]
79

###

# PROTOCOL_NOTES: Plasma pharmacokinetics after oral administration in mice
# PROTOCOL_CONDITIONS: male, ICR, mouse, plasma, po, 6 mg/kg
Property: AUC(0-t); scope: individual compounds
VALUE_TYPE: AUC(0-t) (ng·h/mL)

COc1ccc2c3c(c4cc(OC)c(OC)cc4c2c1)CN1CCC[C@H]1C3 [(+)-13a-(S)-deoxytylophorinine, reference compound]
33.3
COc1ccc2c3c(c4cc(OC)c(OC)cc4c2c1)CN1CCC[C@H]1C3.O=C(O)/C=C\C(=O)O [Maleate, (+)-13a-(S)-deoxytylophorinine Maleate]
46.9
COc1ccc2c3c(c4cc(OC)c(OC)cc4c2c1)CN1CCC[C@H]1C3.O=C(O)C(O)C(O)C(=O)O [Tartrate, (+)-13a-(S)-deoxytylophorinine Tartrate]
37.4
COc1ccc2c3c(c4cc(OC)c(OC)cc4c2c1)CN1CCC[C@H]1C3.O=C(O)CC(O)(CC(=O)O)C(=O)O [Citrate, (+)-13a-(S)-deoxytylophorinine Citrate]
32.7

###

# PROTOCOL_NOTES: Plasma pharmacokinetics after oral administration in mice
# PROTOCOL_CONDITIONS: male, ICR, mouse, plasma, po, 6 mg/kg
VALUE_TYPE: AUC(0-inf) (ng·h/mL)

COc1ccc2c3c(c4cc(OC)c(OC)cc4c2c1)CN1CCC[C@H]1C3.O=C(O)CC(O)(CC(=O)O)C(=O)O [Citrate, (+)-13a-(S)-deoxytylophorinine Citrate]
33.1
COc1ccc2c3c(c4cc(OC)c(OC)cc4c2c1)CN1CCC[C@H]1C3.O=C(O)C(O)C(O)C(=O)O [Tartrate, (+)-13a-(S)-deoxytylophorinine Tartrate]
37.9
COc1ccc2c3c(c4cc(OC)c(OC)cc4c2c1)CN1CCC[C@H]1C3.O=C(O)/C=C\C(=O)O [Maleate, (+)-13a-(S)-deoxytylophorinine Maleate]
49.9
COc1ccc2c3c(c4cc(OC)c(OC)cc4c2c1)CN1CCC[C@H]1C3 [(+)-13a-(S)-deoxytylophorinine, reference compound]
33.7

Sourced from patent US20120190703A1
